Items are presented alongside their recorded SPOT peptide array binding signal intensity.
- target_or_test_system: AgCyk3
- method_description: SPOT peptide array binding signal intensity (averaged, normalized) (arbitrary units (background-subtracted, floor 0; scale differs between SH3 domains)); higher = stronger binding of the SH3 domain to the peptide
Simply state the number, no unit and no words.

Observe how each entry below is paired with its result.
>  <binder>
VNIPSPSSSPPPIPK

>  <observed>
0.5

$$$$
>  <binder>
GRLRPKRIAPWHLIQ

>  <observed>
4

$$$$
>  <binder>
SPLGAPPPPPHKDHL

>  <observed>
1

$$$$
>  <binder>
NGRRRPKFRVQLSGN

>  <observed>
5

$$$$

Read the next record carefully.
Q: Entry RKNRAPPQRPRFNRE needs its SPOT peptide array binding signal intensity filled in; supply it.
Ans: 7

Where these numbers come from: the supplement of paper PMC4466140
